experiment: mouse exposure / pharmacokinetics in formalin study (plasma, brain); assay type: in vivo; conditions: plasma, po; mouse, 135 mg/kg p.o., pre-tx time 0.25 hr, unbound; read-out: Mean plasma, u
reported-endpoint: concentration at 0.25 hr
Provide the measurement as a number trailed by its unit.

# concentration at 0.25 hr lookup, item CC(C)(CO)CCCNC(=O)c1cc(-c2ccccc2)on1
0.282 µM

----------
test: mouse exposure / pharmacokinetics in formalin study (plasma, brain); format: in vivo; conditions: in vivo, po; mouse
reported-endpoint: Tmax (min)
Use min as the unit, but write only the number.

# Tmax lookup, item CC(C)(CO)CCCNC(=O)c1cc(-c2ccccc2)on1
15

----------
target: hNav1.7 (Homo sapiens, UniProt Q15858); assay: Nav1.7 in vitro inhibition assay; type: cell-based; details: in words
Sequence (Q15858 whole entry): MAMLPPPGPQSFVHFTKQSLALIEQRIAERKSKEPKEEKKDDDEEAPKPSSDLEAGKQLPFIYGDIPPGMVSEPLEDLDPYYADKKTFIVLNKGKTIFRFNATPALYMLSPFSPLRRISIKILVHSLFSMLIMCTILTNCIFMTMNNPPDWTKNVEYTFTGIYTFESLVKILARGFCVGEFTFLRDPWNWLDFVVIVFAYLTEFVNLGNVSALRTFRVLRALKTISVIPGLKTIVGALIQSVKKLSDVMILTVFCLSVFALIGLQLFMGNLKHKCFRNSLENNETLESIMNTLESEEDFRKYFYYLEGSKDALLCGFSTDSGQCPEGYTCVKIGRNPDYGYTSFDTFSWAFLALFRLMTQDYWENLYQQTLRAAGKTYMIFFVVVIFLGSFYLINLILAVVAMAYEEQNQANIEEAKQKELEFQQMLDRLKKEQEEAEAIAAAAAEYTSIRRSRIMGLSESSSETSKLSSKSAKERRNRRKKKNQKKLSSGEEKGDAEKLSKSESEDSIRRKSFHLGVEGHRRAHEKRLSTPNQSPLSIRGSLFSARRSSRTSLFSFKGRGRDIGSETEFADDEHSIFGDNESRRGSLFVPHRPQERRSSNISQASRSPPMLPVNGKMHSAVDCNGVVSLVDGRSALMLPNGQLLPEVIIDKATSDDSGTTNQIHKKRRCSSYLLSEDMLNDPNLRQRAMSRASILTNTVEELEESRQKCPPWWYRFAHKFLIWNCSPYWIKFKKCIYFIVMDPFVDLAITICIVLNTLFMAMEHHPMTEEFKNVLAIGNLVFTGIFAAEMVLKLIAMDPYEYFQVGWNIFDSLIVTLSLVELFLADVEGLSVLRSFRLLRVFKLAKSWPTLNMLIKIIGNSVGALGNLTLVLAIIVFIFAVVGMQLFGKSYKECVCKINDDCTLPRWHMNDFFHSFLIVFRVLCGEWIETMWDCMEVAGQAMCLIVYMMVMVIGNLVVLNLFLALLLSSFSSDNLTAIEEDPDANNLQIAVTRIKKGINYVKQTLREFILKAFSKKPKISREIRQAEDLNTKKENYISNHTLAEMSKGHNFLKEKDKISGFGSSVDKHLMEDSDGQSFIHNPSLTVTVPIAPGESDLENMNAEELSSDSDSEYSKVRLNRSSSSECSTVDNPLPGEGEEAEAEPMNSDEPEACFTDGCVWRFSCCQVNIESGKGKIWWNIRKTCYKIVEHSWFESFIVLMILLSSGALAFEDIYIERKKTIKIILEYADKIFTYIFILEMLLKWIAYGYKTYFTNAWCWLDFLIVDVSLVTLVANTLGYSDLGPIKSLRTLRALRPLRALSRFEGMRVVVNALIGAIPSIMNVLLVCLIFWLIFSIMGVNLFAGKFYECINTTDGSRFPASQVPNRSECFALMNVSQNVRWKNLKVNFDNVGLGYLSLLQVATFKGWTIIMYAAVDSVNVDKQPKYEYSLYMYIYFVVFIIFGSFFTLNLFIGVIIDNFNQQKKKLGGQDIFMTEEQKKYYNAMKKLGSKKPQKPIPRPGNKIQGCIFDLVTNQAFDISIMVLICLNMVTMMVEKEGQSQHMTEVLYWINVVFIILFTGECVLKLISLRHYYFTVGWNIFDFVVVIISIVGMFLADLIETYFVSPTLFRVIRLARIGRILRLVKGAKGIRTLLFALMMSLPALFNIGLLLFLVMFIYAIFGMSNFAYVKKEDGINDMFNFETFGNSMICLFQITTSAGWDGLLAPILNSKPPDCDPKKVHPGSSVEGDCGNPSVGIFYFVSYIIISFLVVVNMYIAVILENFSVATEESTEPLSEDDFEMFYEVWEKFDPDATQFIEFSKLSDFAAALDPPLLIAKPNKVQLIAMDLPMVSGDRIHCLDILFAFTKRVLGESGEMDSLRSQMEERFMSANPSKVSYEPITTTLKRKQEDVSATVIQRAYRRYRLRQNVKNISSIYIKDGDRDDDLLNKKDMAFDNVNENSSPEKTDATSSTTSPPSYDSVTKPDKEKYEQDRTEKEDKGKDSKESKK
reported-endpoint: subtype selectivity (Nav1.7 vs. Nav1.5)

* Cc1ccc(F)cc1-c1c(C(=O)NCCCC(C)(C)CO)noc1-c1ccccc1 | improved
* CN(CCCC(C)(C)CO)C(=O)c1cc(-c2ccccc2)on1 | improved

----------
molecular target: hNav1.5 (Homo sapiens); assay: Nav1.5 in vitro inhibition assay; format: cell-based; details: in vitro testing; read-out: Nav1.5 potency
reported-endpoint: IC50
Provide the measurement as a number trailed by its unit.

# IC50 lookup, item CC(C)(CO)CCCNC(=O)c1cc(-c2ccccc2)on1 [Compound 100]
1.9 µM

----------
experiment: mouse exposure / pharmacokinetics in formalin study (plasma, brain); format: in vivo; conditions: in vivo, po; mouse
reported-endpoint: half-life (h)
Use h as the unit, but write only the number.

# half-life lookup, item CC(C)(CO)CCCNC(=O)c1cc(-c2ccccc2)on1
1.1

----------
biological target: hNav1.5 (Homo sapiens, UniProt Q14524); test: Nav1.5 in vitro inhibition assay; type: cell-based; conditions: in vitro testing; read-out: Nav1.5 IC50
Sequence (Q14524 whole entry): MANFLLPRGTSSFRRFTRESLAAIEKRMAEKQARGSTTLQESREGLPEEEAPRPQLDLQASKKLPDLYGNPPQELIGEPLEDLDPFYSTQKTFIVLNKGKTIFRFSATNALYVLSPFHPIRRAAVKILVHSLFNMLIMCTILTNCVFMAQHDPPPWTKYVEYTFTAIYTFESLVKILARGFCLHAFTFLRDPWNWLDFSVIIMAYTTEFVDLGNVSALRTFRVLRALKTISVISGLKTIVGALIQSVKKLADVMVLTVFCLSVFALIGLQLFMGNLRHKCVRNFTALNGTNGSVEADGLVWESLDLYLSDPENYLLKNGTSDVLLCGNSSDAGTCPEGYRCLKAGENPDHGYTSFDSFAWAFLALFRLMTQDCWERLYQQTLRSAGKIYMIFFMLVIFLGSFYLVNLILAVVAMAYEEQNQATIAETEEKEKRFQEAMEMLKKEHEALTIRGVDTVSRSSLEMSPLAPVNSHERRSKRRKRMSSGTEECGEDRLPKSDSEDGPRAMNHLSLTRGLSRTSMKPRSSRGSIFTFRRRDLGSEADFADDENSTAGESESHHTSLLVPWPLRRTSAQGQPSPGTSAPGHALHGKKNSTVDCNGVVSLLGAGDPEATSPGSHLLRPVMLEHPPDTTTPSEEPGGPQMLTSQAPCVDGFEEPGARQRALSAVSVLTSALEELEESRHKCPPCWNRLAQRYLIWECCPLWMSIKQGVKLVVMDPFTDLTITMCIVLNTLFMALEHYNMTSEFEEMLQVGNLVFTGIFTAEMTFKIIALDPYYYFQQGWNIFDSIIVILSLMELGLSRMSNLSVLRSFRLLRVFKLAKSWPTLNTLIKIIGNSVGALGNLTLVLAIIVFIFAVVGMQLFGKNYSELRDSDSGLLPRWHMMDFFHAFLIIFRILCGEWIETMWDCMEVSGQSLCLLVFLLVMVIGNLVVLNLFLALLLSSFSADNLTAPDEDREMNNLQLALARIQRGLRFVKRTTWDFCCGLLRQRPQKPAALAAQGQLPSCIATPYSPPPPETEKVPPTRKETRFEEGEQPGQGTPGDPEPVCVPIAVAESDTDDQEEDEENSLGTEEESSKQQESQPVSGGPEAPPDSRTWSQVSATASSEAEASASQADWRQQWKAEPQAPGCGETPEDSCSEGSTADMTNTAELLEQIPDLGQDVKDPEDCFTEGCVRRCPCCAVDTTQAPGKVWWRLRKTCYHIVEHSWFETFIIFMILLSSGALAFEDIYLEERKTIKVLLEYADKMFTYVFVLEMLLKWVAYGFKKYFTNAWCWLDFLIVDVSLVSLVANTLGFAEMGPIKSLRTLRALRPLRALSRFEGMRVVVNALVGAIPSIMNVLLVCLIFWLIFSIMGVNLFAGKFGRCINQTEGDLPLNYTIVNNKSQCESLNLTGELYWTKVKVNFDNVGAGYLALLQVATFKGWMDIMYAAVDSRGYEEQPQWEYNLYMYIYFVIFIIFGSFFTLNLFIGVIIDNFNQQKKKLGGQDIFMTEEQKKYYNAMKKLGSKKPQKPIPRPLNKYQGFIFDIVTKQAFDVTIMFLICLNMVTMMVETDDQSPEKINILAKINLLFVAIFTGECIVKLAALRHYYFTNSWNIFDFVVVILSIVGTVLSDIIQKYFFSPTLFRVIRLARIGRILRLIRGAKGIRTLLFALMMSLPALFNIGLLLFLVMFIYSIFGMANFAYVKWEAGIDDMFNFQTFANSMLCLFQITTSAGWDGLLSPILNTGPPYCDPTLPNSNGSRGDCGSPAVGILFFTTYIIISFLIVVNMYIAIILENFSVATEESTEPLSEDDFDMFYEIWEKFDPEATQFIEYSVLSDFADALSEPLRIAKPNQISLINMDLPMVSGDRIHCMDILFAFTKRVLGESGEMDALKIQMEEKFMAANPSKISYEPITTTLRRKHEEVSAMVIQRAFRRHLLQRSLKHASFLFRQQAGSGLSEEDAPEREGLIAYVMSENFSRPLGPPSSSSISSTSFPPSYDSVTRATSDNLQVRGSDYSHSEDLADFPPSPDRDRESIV
reported-endpoint: pIC50
// pIC50: -log10(molar conc.)

# pIC50 lookup, item CC(C)(CO)CCCNC(=O)c1noc(-c2ccccc2)c1-c1ccccc1 [Compound 106]
6.74

----------
assay: mouse exposure / pharmacokinetics in formalin study (plasma, brain); assay type: in vivo; details: brain, po; mouse, 135 mg/kg p.o., pre-tx time 0.25 hr, unbound; read-out: Mean Brain, u
reported-endpoint: concentration at 0.25 hr (nM)
Use nM as the unit, but write only the number.

# concentration at 0.25 hr lookup, item CC(C)(CO)CCCNC(=O)c1cc(-c2ccccc2)on1
414

----------
target: hNav1.7 (Homo sapiens); test: Nav1.7 in vitro inhibition assay; format: cell-based; details: FI; read-out: h1.7 IC50 (FI)
reported-endpoint: pIC50
// pIC50: -log10(molar conc.)

# pIC50 lookup, item CC(C)(CO)CCCNC(=O)c1cc(-c2ccccc2)on1
5.69
